test system: HCT-116 human colorectal carcinoma cells; experiment: Cell-proliferation assay using Alamar Blue dye; type: cell-based; conditions: Homo sapiens, HCT-116, second HCT-116 column (c8); read-out: HCT-116 (uM) cell proliferation modulatory activity
Measured IC50 of individual entries
The figure you give is taken to be in µM; do not add the unit.

{"columns": ["SMILES_REPRESENTATION", "MEASUREMENT_NAME", "UNIT_LABEL", "NUMERIC_READOUT"],
 "data": [
  ["COC(=O)c1ccc2c(c1)nc(N(C)c1ccccc1)c1nc(S(C)(=O)=O)ncc12", "IC50", "µM", 4.36]
]}

Field: next molecule
# molecule N#Cc1ccc2c(c1)nc(NC1CCNCC1)c1ccsc12 ; its IC50 = 3.15

====

tested on: HCT-116 human colorectal carcinoma cells; test: Cell-proliferation assay using Alamar Blue dye; type: cell-based; conditions: Homo sapiens, HCT-116, second HCT-116 column (c8); read-out: HCT-116 (uM) cell proliferation modulatory activity;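 further: cells exposed to compound for about 4 days, then Alamar Blue added and dye fluorescence read after about 4 h, compared with medium-only control wells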
MEASUREMENT_NAME: IC50

Consider the reported IC50 for these compounds:
{"columns": ["COMPOUND", "RESULT"],
 "data": [
  ["CN(c1ccccc1)c1nc2cc(C(=O)NC3CC3)ccc2c2cnc(NC3CC3)nc12", "> 10 µM"],
  ["CN(c1ccccc1)c1nc2cc(C(=O)O)ccc2c2cnc(N)nc12", "> 10 µM"],
  ["O=C(O)c1ccc2c(c1)nc(NCCNc1ccccc1)c1ccncc12", "> 10 µM"],
  ["C#Cc1cccc(Nc2nc3cc(C(=O)O)ccc3c3ccncc23)c1", "> 10 µM"],
  ["Clc1ccc(Nc2nc3cc(-c4nnn[nH]4)ccc3c3cscc23)cc1", "> 10 µM"],
  ["O=C(O)c1ccc2c(c1)nc(Nc1ccccc1)c1cnccc12", "> 10 µM"]
]}

# compound CN(C)CCNc1nc2cc(C#N)ccc2c2sc(Br)cc12 ; its IC50 = 0.704 µM

# compound O=C(O)c1ccc2c(c1)nc(Nc1ccc(Br)cc1)c1ccncc12 ; its IC50 = > 10 µM

# compound N#Cc1ccc2c(c1)nc(Nc1ccc(F)c(Cl)c1)c1cscc12 ; its IC50 = > 10 µM

# compound CN(C)CCN(C)c1nc2cc(C#N)ccc2c2sccc12 ; its IC50 = 0.511 µM

# compound O=C(O)c1ccc2c(c1)nc(Nc1ccc3c(c1)OCCO3)c1ccncc12 ; its IC50 = > 10 µM

# compound CC1(C)CC(Nc2nc3cc(-c4nnn[nH]4)ccc3c3sccc23)CC(C)(C)N1 ; its IC50 = > 10 µM

# compound CN1CCCC1CNc1nc2cc(C#N)ccc2c2sccc12 (stereo not drawn) ; its IC50 = 4.41 µM

# compound CONc1nc2cc(C(=O)O)ccc2c2cnccc12 ; its IC50 = > 10 µM

# compound CC(=O)N1CCN(c2nc3cc(C#N)ccc3c3sccc23)CC1 ; its IC50 = > 10 µM

# compound CN1CCC(N(C)c2nc3cc(C#N)ccc3c3sccc23)C1 (stereo not drawn) ; its IC50 = 4.65 µM

# compound CC(C)(C)OC(=O)N1CCC(Nc2nc3cc(C#N)ccc3c3sccc23)CC1 ; its IC50 = > 10 µM

# compound CC(C)(C)OC(=O)N1CCCC1CNc1nc2cc(C#N)ccc2c2sccc12 (stereo not drawn) ; its IC50 = > 10 µM

# compound CC1(C)CC(Nc2nc3cc(C#N)ccc3c3sccc23)CC(C)(C)N1 ; its IC50 = 6.75 µM

# compound Cc1ccccc1Nc1nc2cc(C(=O)N(C)C)ccc2c2cnc(NC3CC3)nc12 ; its IC50 = > 10 µM

# compound CN(C)CCNc1nc2cc(C(N)=O)ccc2c2sccc12 ; its IC50 = 4.29 µM
